# measured target: T1, human DLL4, full length, on cells (human, UniProt Q9NR61 27-685)
# T1 construct: also called huDLL4 cells; human DLL4-293G
# T1 sequence (Q9NR61 27-685 limits assumed): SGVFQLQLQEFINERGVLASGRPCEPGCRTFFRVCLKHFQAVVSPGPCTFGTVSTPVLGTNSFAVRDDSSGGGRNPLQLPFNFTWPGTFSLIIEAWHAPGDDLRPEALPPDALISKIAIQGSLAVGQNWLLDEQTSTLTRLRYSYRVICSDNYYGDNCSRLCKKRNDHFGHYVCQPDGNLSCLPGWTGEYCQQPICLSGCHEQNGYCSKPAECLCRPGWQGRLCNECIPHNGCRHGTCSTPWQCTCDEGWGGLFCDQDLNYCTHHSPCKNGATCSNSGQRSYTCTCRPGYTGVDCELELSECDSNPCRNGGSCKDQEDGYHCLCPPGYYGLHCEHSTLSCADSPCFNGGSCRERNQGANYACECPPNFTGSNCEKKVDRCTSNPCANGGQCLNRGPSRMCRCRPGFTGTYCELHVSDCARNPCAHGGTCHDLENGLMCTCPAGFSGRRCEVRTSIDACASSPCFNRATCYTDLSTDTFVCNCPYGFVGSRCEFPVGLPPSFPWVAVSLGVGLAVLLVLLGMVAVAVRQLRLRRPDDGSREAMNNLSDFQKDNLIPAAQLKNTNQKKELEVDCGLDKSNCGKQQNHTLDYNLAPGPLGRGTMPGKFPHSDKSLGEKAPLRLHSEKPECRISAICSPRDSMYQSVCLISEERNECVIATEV
# test name: FACS, DLL4 cells
measured parameter: EC50 (nM)
Please give a number only; it is taken to be in nM.

INPUT: # return recorded EC50 for input h1A11.8 (antibody, V domains shown, humanized IgG; also called VH.1a/VL.2a 1A11) VH: EVQLVESGGGLVQPGGSLRLSCAASGFTFSNFPMAWVRQAPGKGLEWVATISSSDGTTYYRDSVKGRFTISRDNAKSSLYLQMNSLRAEDTAVYYCSRGYYNSPFAYWGQGTLVTVSS VL: EIVMTQSPATLSVSPGERATLSCRASEDIYSNLAWYQQKPGQSPRLLIFDTNNLADGVPARFSGSGSGTESTLTISSLQSEDFAVYFCQQYNNYPPTFGQGTKLEIKR
OUTPUT: 3.34

INPUT: Return value of EC50 for input h1A11.5 (antibody, V domains shown, humanized IgG; also called VH.1a/VL.1 1A11) VH: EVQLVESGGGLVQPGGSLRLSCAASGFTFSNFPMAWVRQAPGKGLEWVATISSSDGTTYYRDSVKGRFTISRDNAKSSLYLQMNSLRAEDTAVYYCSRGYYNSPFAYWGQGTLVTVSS VL: DIQMTQSPSSLSASVGDRVTITCRASEDIYSNLAWYQQKPGKAPKLLIYDTNNLADGVPSRFSGSGSGTDFTLTISSLQPEDFATYYCQQYNNYPPTFGQGTKLEIKR , no commentary.
OUTPUT: 3.61
